Cited source: PubChem BioAssay (NCI)

- Test system: OVCAR-5 ovarian
- Method notes: NCI tumour cell line growth inhibition, 48 h
# TGI values compiled below

# annotated cases, reported TGI shown
- Molecule: "Nc1cc(S(N)(=O)=O)ccc1SSc1ccc(S(N)(=O)=O)cc1N"
  Value kind: "TGI"
  Reported measurement: "> 100 µM"
- Molecule: "O=C(CNc1ccc2c(=S)c3ccccc3[nH]c2c1)Nc1ccccc1-c1ccccc1NC(=O)CNc1ccc2c(=S)c3ccccc3[nH]c2c1"
  Value kind: "TGI"
  Reported measurement: "53.5 µM"
- Molecule: "CN(Cc1cnc2nc(N)nc(N)c2n1)c1ccc(C(=O)NC(CCC(=O)NC(CC(P(=O)(O)O)P(=O)(O)O)C(=O)O)C(=O)O)cc1 (stereo unspecified)"
  Value kind: "TGI"
  Reported measurement: "> 100 µM"
- Molecule: "COC12C=CC(C=C1C#N)CC2 (stereo unspecified) (tested in a mixture with another compound)"
  Value kind: "TGI"
  Reported measurement: "> 100 µM"
- Molecule: "CC1(C(=O)O)CCOc2ccccc21 (stereo unspecified)"
  Value kind: "TGI"
  Reported measurement: "> 100 µM"
- Molecule: "Nc1c(C(=O)N/N=C/c2ccc(-c3cc(Cl)c(Cl)cc3Cl)o2)cnn1-c1ccnc2c(C(F)(F)F)cccc12"
  Value kind: "TGI"
  Reported measurement: "> 100 µM"
- Molecule: "O=C(N/C(=C\\c1ccc(/C=C(\\NC(=O)c2ccccc2)c2nc3ccccc3s2)cc1)c1nc2ccccc2s1)c1ccccc1"
  Value kind: "TGI"
  Reported measurement: "31 µM"
- Molecule: "CCC1(NC(=O)c2cc(F)c(F)c(F)c2F)C(=O)NC(=O)N(C(C)C)C1=O (stereo unspecified)"
  Value kind: "TGI"
  Reported measurement: "> 100 µM"
- Molecule: "O=C(c1ccc(O)c([N+](=O)[O-])c1)c1ccc(O)c([N+](=O)[O-])c1"
  Value kind: "TGI"
  Reported measurement: "> 100 µM"
- Molecule: "c1csc(-c2ccsc2-c2ccsc2)c1"
  Value kind: "TGI"
  Reported measurement: "> 100 µM"

Asked: Fill in the blank: the reported TGI of `Cn1ccnc1CCc1ccc(Cl)c(Cl)c1` is ____.
Given back: > 100 µM

Asked: Fill in the blank: the reported TGI of `N#C/C(=C\c1c(-c2ccccc2)[nH]c2ccccc12)C(=O)c1ccccc1` is ____.
Given back: > 100 µM

Asked: Fill in the blank: the reported TGI of `C=Cc1nc(C#N)c(N)o1` is ____.
Given back: > 100 µM

Asked: Fill in the blank: the reported TGI of `COc1ccc(-c2ccc(-c3ccc(C(=N)N)cn3)o2)cc1Cl` is ____.
Given back: 3.38 µM

Asked: Fill in the blank: the reported TGI of `O=C1/C(=C/c2ccccc2)NC(=S)N1CN1CCCCC1` is ____.
Given back: > 100 µM

====

- System: NCI/ADR-RES ovarian
- Method notes: NCI tumour cell line growth inhibition, 48 h
# GI50 values compiled below

# annotated cases, reported GI50 shown
- Compound: "Nc1nccc2c1ncn2C1OC(CO)C(O)C1O (centres undefined)"
  Assay system: "NCI/ADR-RES ovarian"
  GI50: "> 100 µM"
- Compound: "CC1(C)CC([P+](c2ccccc2)(c2ccccc2)c2ccccc2)=NN1"
  Assay system: "NCI/ADR-RES ovarian"
  GI50: "> 100 µM"

Okay, now this compound:
Asked: Fill in the blank: the reported GI50 of COC(=O)[C@H](C)NC(=O)[C@@H](OC)[C@@H]1Cc2cc3cc(OC4CC(OC5CC(O)C(O)C(C)O5)C(O)C(C)O4)c(C)c(O)c3c(O)c2C(=O)[C@H]1OC1CC(OC2CC(OC3CC(C)(O)C(O)C(C)O3)C(O)C(C)O2)C(O)C(C)O1 (some centres undefined) is ____.
Given back: 12.3 µM

====

# TGI values compiled below
- System: MALME-3M melanoma
- Method notes: NCI tumour cell line growth inhibition, 48 h
Note: unit µM is implicit; provide only the numeric part.

- Molecule: "CC12CCC(C(=Nc3cc(C(F)(F)F)cc(C(F)(F)F)c3)C1=O)C2(C)C (stereo not given)"
  TGI [µM]: 69.4
- Molecule: "CSc1ccc(SC2c3ccc(C)cc3Oc3nc(N)c(C#N)c(N)c32)cc1 (stereo not given)"
  TGI [µM]: 3.01

Okay, now this molecule:
Asked: Request body: readout TGI, system MALME-3M melanoma, query `CN(C)CCNC(=O)c1ccc(Cl)c2cc3ccccc3nc12` . Return the value.
Given back: 2.26

====

- Test system: M19-MEL melanoma
- Method notes: NCI tumour cell line growth inhibition, 48 h
# TGI values compiled below

# annotated cases, reported TGI shown
- Molecule: "CS(=O)(=O)N(CCC#N)c1ccc(C=O)cc1"
  TGI: "> 100 µM"
- Molecule: "O=C(CSc1nnc(-c2ccc(N=Cc3ccc(Cl)cc3)cc2)o1)Nc1ccc([N+](=O)[O-])cc1"
  TGI: "36.9 µM"
- Molecule: "O=C(CNc1ccc2c(=S)c3ccccc3[nH]c2c1)Nc1ccccc1-c1ccccc1NC(=O)CNc1ccc2c(=S)c3ccccc3[nH]c2c1"
  TGI: "> 55.5 µM"
- Molecule: "CC(=O)[O-].[Zn].c1ccc(/C(=N\\Nc2ccccn2)c2ccccn2)cc1"
  TGI: "1.89 µM"
- Molecule: "CCOC(=O)N1C(c2ccccc2)C=CC(c2ccccc2)N1C(=O)OCC (stereo not given)"
  TGI: "> 100 µM"
- Molecule: "OCC(O)C(O)C(O)c1nn(-c2ccccc2)c2nc3cc(Cl)c(Cl)cc3nc12 (stereo not given)"
  TGI: "> 100 µM"

Asked: Fill in the blank: the reported TGI of `CCN(CC)c1ccc(N=C2C=C(Cl)C(=O)c3ncccc32)c(C)c1` is ____.
Given back: 68.5 µM

Asked: Fill in the blank: the reported TGI of CC1(C(=O)O)CCOc2ccccc21 (stereo not given) is ____.
Given back: > 100 µM

Asked: Fill in the blank: the reported TGI of CC(C)CC12CC3CCC(CNC1=O)C32C (stereo not given) is ____.
Given back: > 100 µM

Asked: Fill in the blank: the reported TGI of `O=C(N/C(=C\c1ccc(/C=C(\NC(=O)c2ccccc2)c2nc3ccccc3s2)cc1)c1nc2ccccc2s1)c1ccccc1` is ____.
Given back: 15.2 µM

====

# TGI values compiled below
- Test system: OVCAR-8 ovarian
- Method notes: NCI tumour cell line growth inhibition, 48 h

# annotated cases, reported TGI shown
- Compound: "CCn1c(=O)c2ccccc2n2c(=O)c3cc4ccccc4cc3nc12"
  Reported measurement: "> 100 µM"
- Compound: "c1csc(-c2ccsc2-c2ccsc2)c1"
  Reported measurement: "> 100 µM"
- Compound: "CC(=O)OC1CCC2C(=CCC3C2(C)C(=O)CC2(C)C(C4(C)OC(C(C)C)=CC4=O)C(O)CC32C)C1(C)C (centres undefined)"
  Reported measurement: "> 100 µM"
- Compound: "CC12CCC(C(=Nc3cc(C(F)(F)F)cc(C(F)(F)F)c3)C1=O)C2(C)C (centres undefined)"
  Reported measurement: "> 100 µM"

Asked: Fill in the blank: the reported TGI of `Cc1c2ccccc2c(C)n2c1nc1ccccc12` is ____.
Given back: > 100 µM

Asked: Fill in the blank: the reported TGI of `CN(C)CCSCCO` is ____.
Given back: > 100 µM

Asked: Fill in the blank: the reported TGI of `O=C(CSc1nnc(-c2ccc(N=Cc3ccc(Cl)cc3)cc2)o1)Nc1ccc([N+](=O)[O-])cc1` is ____.
Given back: > 100 µM

Asked: Fill in the blank: the reported TGI of `Cc1cc(N2CCCC2)c([N+](=O)[O-])cc1[N+](=O)[O-]` is ____.
Given back: > 100 µM

Asked: Fill in the blank: the reported TGI of `Clc1cc(-c2ccccc2)nc2ccccc12` is ____.
Given back: > 100 µM

====

- Test system: RPMI-8226 leukemia
- Method notes: NCI tumour cell line growth inhibition, 48 h
Value kind: TGI

# annotated cases, reported TGI shown
- Compound: "N=c1oc2ccccc2cc1-c1nc2ccccc2c(=O)[nH]1"
  Reported measurement: "> 100 µM"
- Compound: "COc1ccc2[nH]c(C(=O)N3CC(CCl)c4c3cc(N)c3ccccc43)cc2c1 (stereo not drawn)"
  Reported measurement: "0.138 µM"

Asked: Request body: readout TGI, system RPMI-8226 leukemia, query COc1cccc(C2SC(C)C(=O)N2CCc2cccs2)c1 (stereo not drawn) . Return the value.
Given back: 5.39 µM

====

- System: UO-31 renal
- Method notes: NCI tumour cell line growth inhibition, 48 h
Value kind: TGI

# annotated cases, reported TGI shown
- Compound: "Cc1cc(O)cc(O)c1C(=O)O[C@]1(C)C(=O)C=C2C=C(/C=C/C(=O)O)OC=C2C1=O"
  Assay system: "UO-31 renal"
  TGI: "> 100 µM"
- Compound: "CCCCCN(CCCCC)CC(C)(C)C(O)c1ccc(OC)c2ccccc12 (centres undefined)"
  Assay system: "UO-31 renal"
  TGI: "8.93 µM"
- Compound: "c1ccc(B2OCC(C3OB(c4ccccc4)OC4COB(c5ccccc5)OC43)O2)cc1 (centres undefined)"
  Assay system: "UO-31 renal"
  TGI: "> 100 µM"
- Compound: "COc1cc2c3c(n(CCCBr)c(=O)c2cc1OC)-c1ccc(F)cc1C3=O"
  Assay system: "UO-31 renal"
  TGI: "60.4 µM"
- Compound: "C=C1C(OC/C=C/COC2O[C@@H]3O[C@@]4(C)CC[C@H]5[C@H](C)CC[C@@H](C2=C)[C@@]35OO4)O[C@@H]2O[C@@]3(C)CC[C@H]4[C@H](C)CC[C@@H]1[C@@]24OO3 (some centres undefined)"
  Assay system: "UO-31 renal"
  TGI: "> 39.4 µM"
- Compound: "COC(=O)NC(Cc1ccccc1)NC(C)=O (centres undefined)"
  Assay system: "UO-31 renal"
  TGI: "> 100 µM"

Asked: Fill in the blank: the reported TGI of `N[C@H](CCC(=O)NCP(=O)(O)O)C(=O)O` is ____.
Given back: > 100 µM

Asked: Fill in the blank: the reported TGI of `CC(=O)[O-].[Zn].c1ccc(/C(=N\Nc2ccccn2)c2ccccn2)cc1` is ____.
Given back: 16.5 µM

Asked: Fill in the blank: the reported TGI of `CC(C)C(=O)[O-].CC(C)C(=O)[O-].N.N.N.N.[Co+3].[O-][Cl+3]([O-])([O-])[O-]` is ____.
Given back: > 100 µM

Asked: Fill in the blank: the reported TGI of `COc1c2ccsc2c(OC)c2ccsc12` is ____.
Given back: > 100 µM

Asked: Fill in the blank: the reported TGI of `COc1cccc(N=N/C(=N\NC(=O)c2cc(Br)ccc2O)c2ccc(N(CCC#N)CCC#N)cc2OC)c1` is ____.
Given back: > 150 µg/mL

Asked: Fill in the blank: the reported TGI of COC(=O)[C@]12CC[C@@H](C)[C@H](C)[C@@H]1C1=CC[C@@H]3[C@@]4(C)C(C=O)=C[C@@](C)(COS(C)(=O)=O)C4[C@H](O)C[C@@]3(C)[C@]1(C)CC2 (some centres undefined) is ____.
Given back: 2.35 µM

Asked: Fill in the blank: the reported TGI of `Cc1ccc(Nc2cc(C)nc(NCCCNc3ccnc4cc(Cl)ccc34)n2)cc1` is ____.
Given back: 2.87 µM

Asked: Fill in the blank: the reported TGI of O=C(O)CNC(=O)c1ccc2cc(C(=O)N3CC(CCl)c4ccc([N+](=O)[O-])cc43)[nH]c2c1 (centres undefined) is ____.
Given back: > 100 µM
